Target: p38a activated, mitogen-activated protein kinase-activated protein kinase 2 (MAPKAP-K2 or MK2) enzyme (Homo sapiens (Human))
Sequence (P49137 whole entry): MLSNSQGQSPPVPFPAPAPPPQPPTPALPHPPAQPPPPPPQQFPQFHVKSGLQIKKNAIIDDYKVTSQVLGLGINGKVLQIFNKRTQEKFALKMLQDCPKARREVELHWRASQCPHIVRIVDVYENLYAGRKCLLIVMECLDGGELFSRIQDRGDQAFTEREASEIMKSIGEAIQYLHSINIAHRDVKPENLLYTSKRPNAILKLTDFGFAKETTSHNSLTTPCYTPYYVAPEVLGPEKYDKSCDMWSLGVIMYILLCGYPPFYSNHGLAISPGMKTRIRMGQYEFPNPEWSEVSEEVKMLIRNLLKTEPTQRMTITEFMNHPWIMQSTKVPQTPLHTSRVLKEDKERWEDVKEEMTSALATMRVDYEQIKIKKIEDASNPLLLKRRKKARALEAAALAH
Experiment: MK2 Omnia continuous-read kinase assay for compound potency
Conditions: [MK-2]=0.4 nM, [ATP]=10 μM, [ST3-Sox]=10 μM; room temperature
Source text: Mitogen-Activated Protein Kinase-Activated Protein Kinase 2 Omnia® Assay for Compound Potency Assessment: The protocol below describes a continuous-read kinase assay optimized to measure potency of compounds against p38a activated, mitogen-activated protein kinase-activated protein kinase 2 (MAPKAP-K2 or MK2) enzyme. […]
endpointName: IC50

Fill in: IC50 of C[C@@H]1CNc2c(sc3ccc4nc(-c5ccnc(/C=C/CN(C)C)c5)ccc4c23)C(=O)N1 [Example I-114] is ___
11 nM

Given C#Cc1cc(-c2ccc3c(ccc4sc5c(c43)NC[C@@H](C)NC5=O)n2)ccn1 [Example I-57] , state its recorded IC50.
117 nM

# lookup: IC50 of C#Cc1cc(-c2ccc3c(ccc4sc5c(c43)NC[C@@H](C)NC5=O)n2)cc(CN2CCC(OC(F)(F)F)CC2)n1 [Example I-190]
402 nM

Quick one: IC50 for C=Cc1cc(-c2ccc3c(ccc4sc5c(c43)NC[C@@H](C)NC5=O)n2)c(Cl)cn1 [Example I-143] ?
59 nM

Give the measured IC50 of C/C=C/c1ncc(F)c(-c2ccc3c(ccc4sc5c(c43)NC[C@@H](C)NC5=O)n2)n1 [Example I-45] .
160 nM

# input compound: C[C@@H]1CNc2c(sc3ccc4nc(-c5cc(Cl)nc(Cl)c5)ccc4c23)C(=O)N1 [Example I-68] ; wanted: its IC50
472 nM

Recorded IC50 for C=Cc1cc(-c2ccc3c(ccc4sc5c(c43)NC[C@@H](C)NC5=O)n2)cc(CN2C[C@@H](C)O[C@@H](C)C2)n1 [Example I-185] , please?
7 nM

Param item = C=Cc1cnc(C)c(-c2ccc3c(ccc4sc5c(c43)NC[C@@H](C)NC5=O)n2)n1 [Example I-181] ; retrieve measured IC50.
39 nM
